Assign total protein half-life in vivo to each entry below.
method.summary: total protein half-life in vivo (active degradation + dilution); higher = more stable protein
applied.conditions: E. coli NCM3722 delta-clpP delta-lon delta-hslV; growth: N-lim chemostat; doubling time 6 h
Answer format: numeric, h implied, no suffix.

QUERY: // query total protein half-life in vivo value for entry METFNSLFMVSPLLLGVLFFVAMLAGFIDSIAGGGGLLTIPALMAAGMSPANALATNKLQACGGSISATIYFIRRKVVSLSDQKLNIAMTFVGSMSGALLVQYVQADVLRQILPILVICIGLYFLLMPKLGEEDRQRRMYGLPFALIAGGCVGFYDGFFGPAAGSFYALAFVTLCGFNLAKATAHAKLLNATSNIGGLLLFILGGKVIWATGFVMLVGQFLGARMGSRLVLSKGQKLIRPMIVIVSAVMSAKLLYDSHGQEILHWLGMN [P0AD30]
RESULT: 6.4

QUERY: // query total protein half-life in vivo value for entry `MKALSPIAVLISALLLQGCVAAAVVGTAAVGTKAATDPRSVGTQVDDGTLEVRVNSALSKDEQIKKEARINVTAYQGKVLLVGQSPNAELSARAKQIAMGVDGANEVYNEIRQGQPIGLGEASNDTWITTKVRSQLLTSDLVKSSNVKVTTENGEVFLMGLVTEREAKAAADIASRVSGVKRVTTAFTFIK`
RESULT: 5.42

QUERY: // query total protein half-life in vivo value for entry `MKIAFIGEAVSGFGGMETVIRDVITTFRQQHIQSEMFFFCRNDKMDKGWLEGIKYSCSFSNIRLGFLRRAKHIHALSKWLQEYQPDIVICIDVISCLFAAKARKKSGIDMPVFSWPHFSLDHKKHAEYITCADYHLAISSGIKQQMINRGVAESTINVIFNPVETKDSVIPAPEEGETATFIYVGRMKFEGQKRVKDLLDGLSQAKGNWKLHVLGDGSDFEKCQAYGRELNIDDRIVWYGWQQYPWELVQQDIEKVSALLLTSSFEGFPMTLLEALSWGIPCISADCVSGPADIIQPDVNGHLYQPGDIAGFVTLLNKYIAGEIHIEHEKIPASIDEFYQSKYYDRLHKVIISAISRRK`
RESULT: 5.73

====

method.summary: total protein half-life in vivo (active degradation + dilution); higher = more stable protein
applied.conditions: wild type E. coli NCM3722; growth: N-lim chemostat; doubling time 12 h
// thresholds for total protein half-life in vivo classes: class A (below 7 h), class B (7 h to below 10 h), class C (10 h or more)

QUERY: Quick check: band for `MNALTAVQNNAVDSGQDYSGFTLTPSAQSPRLLELTFTEQTTKQFLEQVAEWPVQALEYKSFLRFRVAKILDDLCANQLQPLLLKTLLNRAEGALLINAVGVDDVKQADEMVKLATAVAHLIGRSNFDAMSGQYYARFVVKNVDNSDSYLRQPHRVMELHNDGTYVEEITDYVLMMKIDEQNMQGGNSLLLHLDDWEHLDNYFRHPLARRPMRFAAPPSKNVSKDVFHPVFDVDQQGRPVMRYIDQFVQPKDFEEGVWLSELSDAIETSKGILSVPVPVGKFLLINNLFWLHGRDRFTPHPDLRRELMRQRGYFAYASNHYQTHQ`
RESULT: class A

QUERY: Quick check: band for MKQTQRHNGIIELVKQQGYVSTEELVEHFSVSPQTIRRDLNELAEQNLILRHHGGAALPSSSVNTPWHDRKATQTEEKERIARKVAEQIPNGSTLFIDIGTTPEAVAHALLNHSNLRIVTNNLNVANTLMVKEDFRIILAGGELRSRDGGIIGEATLDFISQFRLDFGILGISGIDSDGSLLEFDYHEVRTKRAIIENSRHVMLVVDHSKFGRNAMVNMGSISMVDAVYTDAPPPVSVMQVLTDHHIQLELC [P0ACL0]
RESULT: class C

QUERY: Quick check: band for MAMYQNMLVVIDPNQDDQPALRRAVYLHQRIGGKIKAFLPIYDFSYEMTTLLSPDERTAMRQGVISQRTAWIHEQAKYYLNAGVPIEIKVVWHNRPFEAIIQEVISGGHDLVLKMAHQHDRLEAVIFTPTDWHLLRKCPSPVWMVKDQPWPEGGKALVAVNLASEEPYHNALNEKLVKETIELAEQVNHTEVHLVGAYPVTPINIAIELPEFDPSVYNDAIRGQHLLAMKALRQKFGINENMTHVEKGLPEEVIPDLAEHLQAGIVVLGTVGRTGISAAFLGNTAEQVIDHLRCDLLVIKPDQYQTPVELDDEEDD [P0AAC0]
RESULT: class B

QUERY: Quick check: band for `MDNDKIDQHSDEIEVESEEKERGKKIEIDEDRLPSRAMAIHEHIRQDGEKELERDAMALLWSAIAAGLSMGASLLAKGIFQVELEGVPGSFLLENLGYTFGFIIVIMARQQLFTENTVTAVLPVMQKPTMSNVGLLIRLWGVVLLGNILGTGIAAWAFEYMPIFNEETRDAFVKIGMDVMKNTPSEMFANAIISGWLIATMVWMFPAAGAAKIVVIILMTWLIALGDTTHIVVGSVEILYLVFNGTLHWSDFIWPFALPTLAGNICGGTFIFALMSHAQIRNDMSNKRKAEARQKAERAENIKKNYKNPA`
RESULT: class C

QUERY: Quick check: band for MSQFFYIHPDNPQQRLINQAVEIVRKGGVIVYPTDSGYALGCKIEDKNAMERICRIRQLPDGHNFTLMCRDLSELSTYSFVDNVAFRLMKNNTPGNYTFILKGTKEVPRRLLQEKRKTIGMRVPSNPIAQALLEALGEPMLSTSLMLPGSEFTESDPEEIKDRLEKQVDLIIHGGYLGQKPTTVIDLTDDTPVVVREGVGDVKPFL [P0AFR4]
RESULT: class C

QUERY: Quick check: band for MANNTTGFTRIIKAAGYSWKGLRAAWINEAAFRQEGVAVLLAVVIACWLDVDAITRVLLISSVMLVMIVEILNSAIEAVVDRIGSEYHELSGRAKDMGSAAVLIAIIVAVITWCILLWSHFG [P0ABN1]
RESULT: class C

QUERY: Quick check: band for MIPEKRIIRRIQSGGCAIHCQDCSISQLCIPFTLNEHELDQLDNIIERKKPIQKGQTLFKAGDELKSLYAIRSGTIKSYTITEQGDEQITGFHLAGDLVGFDAIGSGHHPSFAQALETSMVCEIPFETLDDLSGKMPNLRQQMMRLMSGEIKGDQDMILLLSKKNAEERLAAFIYNLSRRFAQRGFSPREFRLTMTRGDIGNYLGLTVETISRLLGRFQKSGMLAVKGKYITIENNDALAQLAGHTRNVA [P0A9E5]
RESULT: class A

QUERY: Quick check: band for `MVKTQRVVITPGEPAGIGPDLVVQLAQREWPVELVVCADATLLTNRAAMLGLPLTLRPYSPNSPAQPQTAGTLTLLPVALRAPVTAGQLAVENGHYVVETLARACDGCLNGEFAALITGPVHKGVINDAGIPFTGHTEFFEERSQAKKVVMMLATEELRVALATTHLPLRDIADAITPALLHEVIAILHHDLRTKFGIAEPRILVCGLNPHAGEGGHMGTEEIDTIIPVLNELRAQGMKLNGPLPADTLFQPKYLDNADAVLAMYHDQGLPVLKYQGFGRGVNITLGLPFIRTSVDHGTALELAGRGKADVGSFITALNLAIKMIVNTQ`
RESULT: class B

QUERY: Quick check: band for MNKVVLLCRPGFEKECAAEITDKAGQREIFGFARVKENAGYVIYECYQPDDGDKLIRELPFSSLIFARQWFVVGELLQHLPPEDRITPIVGMLQGVVEKGGELRVEVADTNESKELLKFCRKFTVPLRAALRDAGVLANYETPKRPVVHVFFIAPGCCYTGYSYSNNNSPFYMGIPRLKFPADAPSRSTLKLEEAFHVFIPADEWDERLANGMWAVDLGACPGGWTYQLVKRNMWVYSVDNGPMAQSLMDTGQVTWLREDGFKFRPTRSNISWMVCDMVEKPAKVAALMAQWLVNGWCRETIFNLKLPMKKRYEEVSHNLAYIQAQLDEHGINAQIQARQLYHDREEVTVHVRRIWAAVGGRRDER [P0ADR6]
RESULT: class B

====

method.summary: total protein half-life in vivo (active degradation + dilution); higher = more stable protein
applied.conditions: E. coli NCM3722 delta-lon; growth: N-lim chemostat; doubling time 6 h
Assign total protein half-life in vivo to each entry below.
Answer format: numeric, h implied, no suffix.

QUERY: // query total protein half-life in vivo value for entry MKKWSRHLLAAGALALGMSAAHADDNNTLYFYNWTEYVPPGLLEQFTKETGIKVIYSTYESNETMYAKLKTYKDGAYDLVVPSTYYVDKMRKEGMIQKIDKSKLTNFSNLDPDMLNKPFDPNNDYSIPYIWGATAIGVNGDAVDPKSVTSWADLWKPEYKGSLLLTDDAREVFQMALRKLGYSGNTTDPKEIEAAYNELKKLMPNVAAFNSDNPANPYMEGEVNLGMIWNGSAFVARQAGTPIDVVWPKEGGIFWMDSLAIPANAKNKEGALKLINFLLRPDVAKQVAETIGYPTPNLAARKLLSPEVANDKTLYPDAETIKNGEWQNDVGAASSIYEEYYQKLKAGR [P0AFK9]
RESULT: 6.27

QUERY: // query total protein half-life in vivo value for entry `MIRSMTAYARREIKGEWGSATWEMRSVNQRYLETYFRLPEQFRSLEPVVRERIRSRLTRGKVECTLRYEPDVSAQGELILNEKLAKQLVTAANWVKMQSDEGEINPVDILRWPGVMAAQEQDLDAIAAEILAALDGTLDDFIVARETEGQALKALIEQRLEGVTAEVVKVRSHMPEILQWQRERLVAKLEDAQVQLENNRLEQELVLLAQRIDVAEELDRLEAHVKETYNILKKKEAVGRRLDFMMQEFNRESNTLASKSINAEVTNSAIELKVLIEQMREQIQNIE`
RESULT: 4.46
